The origin of these recorded values is PubChem BioAssay (NCI).

Tested on: NCI-H460 NSCLC
Experiment: NCI tumour cell line growth inhibition, 384-well format
Please respond with reported TGI for every item in the list.
Response body: numeric value in µM, unit text excluded.

Name the reported TGI value associated with the molecule NC(=O)c1cccc2c(N[C@H](CN3CCC3)c3ccc(Cl)c(C(F)(F)F)c3)ncnc12 2.4

Name the reported TGI value associated with the molecule Cc1ccc(F)c(NC(=O)Nc2ccc(-c3cccc4[nH]nc(N)c34)cc2)c1 3.02

Name the reported TGI value associated with the molecule C[C@H](c1ccc(F)cc1CCCC(=O)O)N(c1cc(F)ccc1F)S(=O)(=O)c1ccc(Cl)cc1 33.8

Name the reported TGI value associated with the molecule CS(=O)(=O)CCNCc1ccc(-c2ccc3ncnc(Nc4ccc(OCc5cccc(F)c5)c(Cl)c4)c3c2)o1 3.29

###

Test system: SN12C renal
Assay: NCI tumour cell line growth inhibition, 384-well format
measuredParameter: TGI (µM)
Response body: numeric value in µM, unit text excluded.

Name the reported TGI value associated with the molecule CS(=O)(=O)CCNCc1ccc(-c2ccc3ncnc(Nc4ccc(OCc5cccc(F)c5)c(Cl)c4)c3c2)o1 7.1

Name the reported TGI value associated with the molecule Cc1ccc(F)c(NC(=O)Nc2ccc(-c3cccc4[nH]nc(N)c34)cc2)c1 2.89

Name the reported TGI value associated with the molecule CNC(=O)c1nn(C)c2c1C(C)(C)Cc1cnc(Nc3cccc(N4CCN(C)CC4)c3)nc1-2 1.74

###

Data export: GI50 values recorded with NCI-H460 NSCLC.

Name the reported GI50 value associated with the compound CS(=O)(=O)CCNCc1ccc(-c2ccc3ncnc(Nc4ccc(OCc5cccc(F)c5)c(Cl)c4)c3c2)o1 1860 nM

Name the reported GI50 value associated with the compound NC(=O)c1cccc2c(N[C@H](CN3CCC3)c3ccc(Cl)c(C(F)(F)F)c3)ncnc12 366 nM

Name the reported GI50 value associated with the compound Cc1ccc(F)c(NC(=O)Nc2ccc(-c3cccc4[nH]nc(N)c34)cc2)c1 1610 nM

Name the reported GI50 value associated with the compound CNC(=O)c1nn(C)c2c1C(C)(C)Cc1cnc(Nc3cccc(N4CCN(C)CC4)c3)nc1-2 89.3 nM

###

Test system: A498 renal
Assay: NCI tumour cell line growth inhibition, 384-well format
measuredParameter: TGI (nM)
Response body: numeric value in nM, unit text excluded.

Name the reported TGI value associated with the compound CS(=O)(=O)CCNCc1ccc(-c2ccc3ncnc(Nc4ccc(OCc5cccc(F)c5)c(Cl)c4)c3c2)o1 2520

Name the reported TGI value associated with the compound NC(=O)c1cccc2c(N[C@H](CN3CCC3)c3ccc(Cl)c(C(F)(F)F)c3)ncnc12 1520

Name the reported TGI value associated with the compound C[C@H](c1ccc(F)cc1CCCC(=O)O)N(c1cc(F)ccc1F)S(=O)(=O)c1ccc(Cl)cc1 69300

Name the reported TGI value associated with the compound C[C@@H](N)COc1ccc(-c2cnc3ccc(N[C@H](C)c4cccc(F)c4)nn23)cc1 2960

###

Tested on: MDA-MB-468 breast
Test: NCI tumour cell line growth inhibition, 384-well format
measuredParameter: TGI (nM)
Response body: numeric value in nM, unit text excluded.

Name the reported TGI value associated with the molecule O=C(CCBr)N1CCN(C(=O)CCBr)CC1 49000

Name the reported TGI value associated with the molecule CS(=O)(=O)CCNCc1ccc(-c2ccc3ncnc(Nc4ccc(OCc5cccc(F)c5)c(Cl)c4)c3c2)o1 260

Name the reported TGI value associated with the molecule CNC(=O)c1nn(C)c2c1C(C)(C)Cc1cnc(Nc3cccc(N4CCN(C)CC4)c3)nc1-2 1830

Name the reported TGI value associated with the molecule C[C@@H](N)COc1ccc(-c2cnc3ccc(N[C@H](C)c4cccc(F)c4)nn23)cc1 2170

###

Test system: SNB-75 CNS
Assay: NCI tumour cell line growth inhibition, 384-well format
measuredParameter: TGI (µM)
Response body: numeric value in µM, unit text excluded.

Name the reported TGI value associated with the compound Cc1ccc(F)c(NC(=O)Nc2ccc(-c3cccc4[nH]nc(N)c34)cc2)c1 9.2

Name the reported TGI value associated with the compound CS(=O)(=O)CCNCc1ccc(-c2ccc3ncnc(Nc4ccc(OCc5cccc(F)c5)c(Cl)c4)c3c2)o1 5.28

Name the reported TGI value associated with the compound C[C@@H](N)COc1ccc(-c2cnc3ccc(N[C@H](C)c4cccc(F)c4)nn23)cc1 2.96

Name the reported TGI value associated with the compound NC(=O)c1cccc2c(N[C@H](CN3CCC3)c3ccc(Cl)c(C(F)(F)F)c3)ncnc12 1.57

###

System: MDA-MB-468 breast
Experiment: NCI tumour cell line growth inhibition, 384-well format; in the data active = GI50 below about 0.43 µM; inactive = the rest
Give your call using only these classes: label 1 (active), label 0 (inactive)

// param item: CNC(=O)c1nn(C)c2c1C(C)(C)Cc1cnc(Nc3cccc(N4CCN(C)CC4)c3)nc1-2 ; yields the recorded call label 0

// param item: C[C@H](c1ccc(F)cc1CCCC(=O)O)N(c1cc(F)ccc1F)S(=O)(=O)c1ccc(Cl)cc1 ; yields the recorded call label 0

// param item: C[C@@H](N)COc1ccc(-c2cnc3ccc(N[C@H](C)c4cccc(F)c4)nn23)cc1 ; yields the recorded call label 0

// param item: NC(=O)c1cccc2c(N[C@H](CN3CCC3)c3ccc(Cl)c(C(F)(F)F)c3)ncnc12 ; yields the recorded call label 1

###

Test system: NCI-H226 lung
Assay: NCI tumour cell line growth inhibition, 384-well format; in the data active = GI50 below about 0.43 µM; inactive = the rest
Give your call using only these classes: active, inactive

// param item: Cc1ccc(F)c(NC(=O)Nc2ccc(-c3cccc4[nH]nc(N)c34)cc2)c1 ; yields the recorded call inactive

// param item: NC(=O)c1cccc2c(N[C@H](CN3CCC3)c3ccc(Cl)c(C(F)(F)F)c3)ncnc12 ; yields the recorded call inactive

// param item: C[C@@H](N)COc1ccc(-c2cnc3ccc(N[C@H](C)c4cccc(F)c4)nn23)cc1 ; yields the recorded call inactive

// param item: CNC(=O)c1nn(C)c2c1C(C)(C)Cc1cnc(Nc3cccc(N4CCN(C)CC4)c3)nc1-2 ; yields the recorded call active

###

Test system: M14 melanoma
Assay: NCI tumour cell line growth inhibition, 384-well format; in the data active means GI50 below about 0.43 µM; inactive means the rest
Give your call using only these classes: class 1 for active, class 0 for inactive

// param item: CNC(=O)c1nn(C)c2c1C(C)(C)Cc1cnc(Nc3cccc(N4CCN(C)CC4)c3)nc1-2 ; yields the recorded call class 1

// param item: CS(=O)(=O)CCNCc1ccc(-c2ccc3ncnc(Nc4ccc(OCc5cccc(F)c5)c(Cl)c4)c3c2)o1 ; yields the recorded call class 0

// param item: O=C(CCBr)N1CCN(C(=O)CCBr)CC1 ; yields the recorded call class 0

// param item: Cc1ccc(F)c(NC(=O)Nc2ccc(-c3cccc4[nH]nc(N)c34)cc2)c1 ; yields the recorded call class 0

// param item: NC(=O)c1cccc2c(N[C@H](CN3CCC3)c3ccc(Cl)c(C(F)(F)F)c3)ncnc12 ; yields the recorded call class 0

###

Please respond with reported TGI for every item in the list.
Tested on: MOLT-4 leukemia
Assay: NCI tumour cell line growth inhibition, 384-well format
Response body: numeric value in nM, unit text excluded.

Name the reported TGI value associated with the compound O=C(CCBr)N1CCN(C(=O)CCBr)CC1 3000

Name the reported TGI value associated with the compound Cc1ccc(F)c(NC(=O)Nc2ccc(-c3cccc4[nH]nc(N)c34)cc2)c1 3350

Name the reported TGI value associated with the compound CS(=O)(=O)CCNCc1ccc(-c2ccc3ncnc(Nc4ccc(OCc5cccc(F)c5)c(Cl)c4)c3c2)o1 2820

Name the reported TGI value associated with the compound CNC(=O)c1nn(C)c2c1C(C)(C)Cc1cnc(Nc3cccc(N4CCN(C)CC4)c3)nc1-2 317

###

Test system: BT-549 breast
Test: NCI tumour cell line growth inhibition, 384-well format
measuredParameter: GI50

Name the reported GI50 value associated with the compound C[C@@H](N)COc1ccc(-c2cnc3ccc(N[C@H](C)c4cccc(F)c4)nn23)cc1 1370 nM

Name the reported GI50 value associated with the compound C[C@H](c1ccc(F)cc1CCCC(=O)O)N(c1cc(F)ccc1F)S(=O)(=O)c1ccc(Cl)cc1 18800 nM

Name the reported GI50 value associated with the compound CS(=O)(=O)CCNCc1ccc(-c2ccc3ncnc(Nc4ccc(OCc5cccc(F)c5)c(Cl)c4)c3c2)o1 1650 nM

Name the reported GI50 value associated with the compound Cc1ccc(F)c(NC(=O)Nc2ccc(-c3cccc4[nH]nc(N)c34)cc2)c1 1990 nM

###

System: ACHN renal
Test: NCI tumour cell line growth inhibition, 384-well format; in the data active = GI50 below about 0.43 µM; inactive = the rest
Give your call using only these classes: active, inactive

// param item: C[C@@H](N)COc1ccc(-c2cnc3ccc(N[C@H](C)c4cccc(F)c4)nn23)cc1 ; yields the recorded call inactive

// param item: C[C@H](c1ccc(F)cc1CCCC(=O)O)N(c1cc(F)ccc1F)S(=O)(=O)c1ccc(Cl)cc1 ; yields the recorded call inactive

// param item: O=C(CCBr)N1CCN(C(=O)CCBr)CC1 ; yields the recorded call inactive

// param item: CS(=O)(=O)CCNCc1ccc(-c2ccc3ncnc(Nc4ccc(OCc5cccc(F)c5)c(Cl)c4)c3c2)o1 ; yields the recorded call active
